# target-or-test-system: CYP2C19 (Homo sapiens, UniProt P33261)
# Sequence (P33261 whole entry): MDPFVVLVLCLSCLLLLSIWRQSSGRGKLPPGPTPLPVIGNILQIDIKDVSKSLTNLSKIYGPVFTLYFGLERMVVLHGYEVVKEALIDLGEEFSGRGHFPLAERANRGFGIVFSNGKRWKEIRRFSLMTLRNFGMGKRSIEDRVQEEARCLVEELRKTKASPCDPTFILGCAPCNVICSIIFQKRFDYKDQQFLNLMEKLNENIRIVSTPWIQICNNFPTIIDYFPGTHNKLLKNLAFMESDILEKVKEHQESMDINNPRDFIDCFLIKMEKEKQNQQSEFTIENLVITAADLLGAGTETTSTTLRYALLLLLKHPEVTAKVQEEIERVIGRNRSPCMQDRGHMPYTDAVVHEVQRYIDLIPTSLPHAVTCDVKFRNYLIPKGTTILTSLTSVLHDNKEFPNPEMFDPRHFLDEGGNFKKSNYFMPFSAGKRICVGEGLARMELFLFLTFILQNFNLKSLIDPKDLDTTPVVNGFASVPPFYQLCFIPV
metric-name: Ki (µM)
The figure you give is taken to be in µM; do not add the unit.

The compound listed as `O=C1Nc2ccc(Cl)cc2[C@@](C#CC2CC2)(C(F)(F)F)O1` has a reported Ki of 21.3

###

metric-name: Ki (µM)
Give just the numeric value; µM need not be written.

Field Ki (CYP2C9 (Homo sapiens)), entry `O=C1Nc2ccc(Cl)cc2[C@@](C#CC2CC2)(C(F)(F)F)O1` : 19.5

###

# target-or-test-system: expressed CYP2C8 (Homo sapiens, UniProt P10632)
# Sequence (P10632 whole entry): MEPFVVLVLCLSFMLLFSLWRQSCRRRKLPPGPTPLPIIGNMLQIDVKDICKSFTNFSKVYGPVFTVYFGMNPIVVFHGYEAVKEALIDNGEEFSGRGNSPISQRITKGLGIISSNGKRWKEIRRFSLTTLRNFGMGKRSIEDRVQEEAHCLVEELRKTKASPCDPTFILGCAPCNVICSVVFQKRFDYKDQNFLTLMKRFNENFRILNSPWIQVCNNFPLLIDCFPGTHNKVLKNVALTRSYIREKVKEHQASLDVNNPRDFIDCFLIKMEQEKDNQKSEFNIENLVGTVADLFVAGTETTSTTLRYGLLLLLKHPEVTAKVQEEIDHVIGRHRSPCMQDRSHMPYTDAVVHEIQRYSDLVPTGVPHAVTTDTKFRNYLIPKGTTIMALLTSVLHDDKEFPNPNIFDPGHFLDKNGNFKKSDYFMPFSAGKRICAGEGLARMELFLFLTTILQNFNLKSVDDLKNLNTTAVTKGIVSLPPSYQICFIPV
metric-name: Ki (µM)
Unit µM implied. Number only.

Result for `O=C1Nc2ccc(Cl)cc2[C@@](C#CC2CC2)(C(F)(F)F)O1` , tested on expressed CYP2C8 (Homo sapiens, UniProt P10632), Ki: 6.05
